pIC50: −log10 of the molar value.
The listing below reports pIC50 for molecules tested on COX-2 (Homo sapiens, UniProt P35354).
Sequence (P35354 18-604): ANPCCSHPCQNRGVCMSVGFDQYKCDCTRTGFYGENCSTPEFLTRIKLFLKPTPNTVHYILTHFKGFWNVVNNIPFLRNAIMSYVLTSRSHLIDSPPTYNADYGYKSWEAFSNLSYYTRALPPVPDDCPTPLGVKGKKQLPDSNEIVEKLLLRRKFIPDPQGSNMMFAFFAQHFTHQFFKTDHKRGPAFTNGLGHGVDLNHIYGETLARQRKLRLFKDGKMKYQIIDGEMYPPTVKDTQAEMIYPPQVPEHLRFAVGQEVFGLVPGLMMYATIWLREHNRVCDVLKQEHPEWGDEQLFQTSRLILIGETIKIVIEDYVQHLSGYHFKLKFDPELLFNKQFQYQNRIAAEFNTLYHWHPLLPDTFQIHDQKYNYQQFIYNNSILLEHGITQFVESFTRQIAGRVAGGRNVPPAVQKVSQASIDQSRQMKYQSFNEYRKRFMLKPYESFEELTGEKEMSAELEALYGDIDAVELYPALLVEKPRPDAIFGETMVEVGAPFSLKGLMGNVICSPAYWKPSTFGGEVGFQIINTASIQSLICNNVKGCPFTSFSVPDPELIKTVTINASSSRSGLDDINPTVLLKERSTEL

# molecule, pIC50
rows = [
    ("O=C(/C=C/c1ccc(-c2ccccc2)cc1)Nc1nc2ccc(O)cc2s1 [Compound 23]", 4.84),
    ("COc1cc(/C=C/C(=O)Nc2ccc(S(N)(=O)=O)cc2)ccc1OCc1ccccc1 [Compound 25]", 6.13),
    ("O=C(Nc1nc2ccc(O)cc2s1)c1cc(O)c(O)c(O)c1 [Compound 28]", 4.98),
    ("NS(=O)(=O)c1ccc(NC(=O)/C=C/c2ccc(-c3ccccc3)cc2)cc1 [Compound 26]", 5.66),
]

All figures here come from paper PMC10976477.
